Taken from patent US10829499B2.

system: HIV-1 (NL4-3 strain); experiment: Assay for Inhibition of HIV Replication (kinetic assay, MT4-gag-GFP reporter cell line; VIKING); assay type: cell-based; conditions: MT4-GFP cells infected with HIV-1 NL4-3; 0% normal human serum (NHS); read-out: VIKING IP50 (nM) with 0% NHS
measure: IC50 (nM)

> print(dat)
                                   molecule  measure  unit.spec  readout.value
1  CCNC1CC2C3OCCCN3C(=O)c3c(O)c(=O)c(C(=O)NCc4c(F)cc(F)cc4F)c1n32 (stereo not shown) [Compound 181]     IC50         nM           6.41
2  O=C(NCc1c(F)cc(F)cc1F)c1c2n3c(c(O)c1=O)C(=O)N1C4CCC(C4)OC1C3CC2 (stereo not shown) [Compound 171]     IC50         nM           2.82
3  C[C@H]1CN2C(=O)c3c(O)c(=O)c(C(=O)NCc4cccc(Cl)c4F)c4n3C(CC4)C2O1 (single isomer, unassigned) [Compound 43]     IC50         nM           1.06
4  C[C@H]1CN2C(=O)c3c(O)c(=O)c(C(=O)NCc4cccc(Cl)c4F)c4n3C(CC4)C2N1 (stereo partly shown) [Compound 91]     IC50         nM              1
5  CCNC1CC2C3OCCCN3C(=O)c3c(O)c(=O)c(C(=O)NCc4cccc(F)c4F)c1n32 (stereo not shown) [Compound 186]     IC50         nM           9.86
6  O=C(NCc1ccc(F)cc1F)c1c2n3c(c(O)c1=O)C(=O)N1CCCCOC1C3CC2 (single isomer, unassigned) [Compound 70]     IC50         nM           1.12
7  C[C@H]1CN2C(=O)c3c(O)c(=O)c(C(=O)NCc4ccc(F)cc4F)c4n3C(CC4)C2N1 (stereo partly shown) [Compound 96]     IC50         nM           2.04

---

system: HIV-1 (NL4-3 strain); experiment: Assay for Inhibition of HIV Replication (kinetic assay, MT4-gag-GFP reporter cell line; VIKING); format: cell-based; conditions: MT4-GFP cells infected with HIV-1 NL4-3; 100% normal human serum (NHS); read-out: VIKING IP50 (nM) with 100% NHS
measure: IC50 (nM)

> print(dat)
                                    compound  measure  readout.value
 1  O=C(NCc1cccc(Cl)c1F)c1c2n3c(c(O)c1=O)C(=O)N1C4CCC(C4)OC1C3CC2 (stereo not drawn) [Compound 152]     IC50           2100
 2  C[C@H]1CN2C(=O)c3c(O)c(=O)c(-c4nnc(Cc5ccc(F)cc5F)s4)c4n3C(CC4)C2N1 (stereo partly drawn) [Compound 130]     IC50           92.8
 3  O=C(NCc1ccc(F)cc1F)c1c2n3c(c(O)c1=O)C(=O)N1CCCOC1C3CC2 (single isomer, unassigned) [Compound 55]     IC50           39.5
 4  CN1CCCN2C(=O)c3c(O)c(=O)c(C(=O)NCc4ccc(F)cc4F)c4n3C(CC4)C12 (single isomer, unassigned) [Compound 83]     IC50           16.8
 5  O=C(NCc1ccccc1F)c1c2n3c(c(O)c1=O)C(=O)N1CCOC1C3CC2 (single isomer, unassigned) [Compound 13]     IC50           5520
 6  O=C(NCc1c(F)cc(F)cc1F)c1c2n3c(c(O)c1=O)C(=O)N1C4CCC(C4)OC1C3CC2 (stereo not drawn) [Compound 171]     IC50           74.6
 7  CC12NCCN1C(=O)c1c(O)c(=O)c(C(=O)NCc3ccc(F)cc3F)c3n1C2CC3 (stereo not drawn)     IC50             27
 8  CCNC1CC2C3OCCCN3C(=O)c3c(O)c(=O)c(C(=O)NCc4cccc(F)c4F)c1n32 (stereo not drawn) [Compound 191]     IC50           63.6
 9  CCNC1CC2C3OCCCN3C(=O)c3c(O)c(=O)c(C(=O)NCc4cccc(Cl)c4F)c1n32 (stereo not drawn) [Compound 196]     IC50            883
10  COC1CC2C3N(C)CCN3C(=O)c3c(O)c(=O)c(C(=O)NCc4ccc(F)cc4F)c1n32 (stereo not drawn) [Compound 124]     IC50             28
11  O=C(NCc1ccc(F)cc1F)c1c2n3c(c(O)c1=O)C(=O)N1CCOC1C3CC2 (single isomer, unassigned) [Compound 6]     IC50           7910
12  CCNC1CC2C3OCCCN3C(=O)c3c(O)c(=O)c(C(=O)NCc4cccc(Cl)c4F)c1n32 (stereo not drawn) [Compound 193]     IC50           2910
13  O=C(NCc1ccc(F)cc1)c1c2n3c(c(O)c1=O)C(=O)N1C4CCC(C4)OC1C3CC2 (stereo not drawn) [Compound 162]     IC50           50.4
14  C[C@H]1CN2C(=O)c3c(O)c(=O)c(C(=O)NCc4cccc(Cl)c4F)c4n3C(CC4)C2N1C (stereo partly drawn) [Compound 105]     IC50           32.6
15  C[C@@H]1CN2C(=O)c3c(O)c(=O)c(C(=O)NCc4cccc(Cl)c4F)c4n3C(CC4)C2O1 (single isomer, unassigned) [Compound 40]     IC50           8000
16  CN1CCCN2C(=O)c3c(O)c(=O)c(C(=O)NCc4ccc(F)cc4F)c4n3C(CC4)C12 (single isomer, unassigned) [Compound 81]     IC50           24.2
17  COC1CC2C3OCCN3C(=O)c3c(O)c(=O)c(C(=O)NCc4ccc(F)cc4F)c1n32 (single isomer, unassigned) [Compound 79]     IC50            135
18  CN1CCCN2C(=O)c3c(O)c(=O)c(C(=O)NCc4cccc(Cl)c4F)c4n3C(CC4)C12 (single isomer, unassigned) [Compound 84]     IC50           37.5
19  CCNC1CC2C3OCCCN3C(=O)c3c(O)c(=O)c(C(=O)NCc4c(F)cc(F)cc4F)c1n32 (stereo not drawn) [Compound 182]     IC50           44.9
20  C[C@H]1COC2C3CCc4c(C(=O)NCc5cccc(Cl)c5F)c(=O)c(O)c(n43)C(=O)N21 (single isomer, unassigned) [Compound 29]     IC50           3410
21  O=C(NCc1ccc(F)cc1)c1c2n3c(c(O)c1=O)C(=O)N1CCCOC1C3CC2 (single isomer, unassigned) [Compound 53]     IC50            393
22  O=C(NCc1ccc(F)cc1)c1c2n3c(c(O)c1=O)C(=O)N1C4CCC(C4)OC1C3CC2 (stereo not drawn) [Compound 161]     IC50           5510
23  O=C(NCc1c(F)cc(F)cc1F)c1c2n3c(c(O)c1=O)C(=O)N1C4CCC(C4)OC1C3CC2 (stereo not drawn) [Compound 168]     IC50           1620
24  O=C(NCc1c(F)cccc1F)c1c2n3c(c(O)c1=O)C(=O)N1CCOC1C3CC2 (single isomer, unassigned) [Compound 14]     IC50            194
25  CCNC1CC2C3OCCCN3C(=O)c3c(O)c(=O)c(C(=O)NCc4cccc(F)c4F)c1n32 (stereo not drawn) [Compound 186]     IC50           36.5
26  C[C@H]1CN(C)C2C3CCc4c(C(=O)NCc5cccc(Cl)c5F)c(=O)c(O)c(n43)C(=O)N21 (stereo partly drawn) [Compound 110]     IC50           67.8
27  C[C@@H]1COC2C3CCc4c(C(=O)NCc5cccc(Cl)c5F)c(=O)c(O)c(n43)C(=O)N21 (single isomer, unassigned)     IC50           1690

---

Reported IC50 values are given for each entry in this list.
tested on: HIV-1 (NL4-3 strain); test: Assay for Inhibition of HIV Replication (kinetic assay, MT4-gag-GFP reporter cell line; VIKING); type: cell-based; details: MT4-GFP cells infected with HIV-1 NL4-3; 0% normal human serum (NHS); read-out: VIKING IP50 (nM) with 0% NHS
measure: IC50

> print(dat)
                                   molecule  measure  readout.value
1  O=C(NCc1c(F)cccc1F)c1c2n3c(c(O)c1=O)C(=O)N1CCOC1C3CC2 (single isomer, unassigned) [Compound 16]     IC50        6.28 nM
2  CCNC1CC2C3OCCCN3C(=O)c3c(O)c(=O)c(C(=O)NCc4cccc(Cl)c4F)c1n32 (stereo not shown) [Compound 200]     IC50        10.1 nM
3  O=C(NCc1ccc(F)c(Cl)c1)c1c2n3c(c(O)c1=O)C(=O)N1CCOC1C3CC2 (single isomer, unassigned) [Compound 24]     IC50       0.622 nM
4  O=C(NCc1ccc(F)c(Cl)c1F)c1c2n3c(c(O)c1=O)C(=O)N1C4CCC(C4)OC1C3CC2 (stereo not shown) [Compound 157]     IC50        12.9 nM
5  O=C(NCc1c(F)cccc1F)c1c2n3c(c(O)c1=O)C(=O)N1CCOC1C3CC2 (single isomer, unassigned) [Compound 15]     IC50       0.609 nM
6  C[C@H]1CCOC2C3CCc4c(C(=O)NCc5ccc(F)cc5F)c(=O)c(O)c(n43)C(=O)N21 (single isomer, unassigned) [Compound 61]     IC50        22.1 nM
7  C[C@H]1CN2C(=O)c3c(O)c(=O)c(C(=O)NCc4cccc(Cl)c4F)c4n3C(CC4)C2N1 (stereo partly shown) [Compound 94]     IC50       0.503 nM
